measurement-target: Albumin (Bos taurus, UniProt P02769)
Sequence (P02769 whole entry): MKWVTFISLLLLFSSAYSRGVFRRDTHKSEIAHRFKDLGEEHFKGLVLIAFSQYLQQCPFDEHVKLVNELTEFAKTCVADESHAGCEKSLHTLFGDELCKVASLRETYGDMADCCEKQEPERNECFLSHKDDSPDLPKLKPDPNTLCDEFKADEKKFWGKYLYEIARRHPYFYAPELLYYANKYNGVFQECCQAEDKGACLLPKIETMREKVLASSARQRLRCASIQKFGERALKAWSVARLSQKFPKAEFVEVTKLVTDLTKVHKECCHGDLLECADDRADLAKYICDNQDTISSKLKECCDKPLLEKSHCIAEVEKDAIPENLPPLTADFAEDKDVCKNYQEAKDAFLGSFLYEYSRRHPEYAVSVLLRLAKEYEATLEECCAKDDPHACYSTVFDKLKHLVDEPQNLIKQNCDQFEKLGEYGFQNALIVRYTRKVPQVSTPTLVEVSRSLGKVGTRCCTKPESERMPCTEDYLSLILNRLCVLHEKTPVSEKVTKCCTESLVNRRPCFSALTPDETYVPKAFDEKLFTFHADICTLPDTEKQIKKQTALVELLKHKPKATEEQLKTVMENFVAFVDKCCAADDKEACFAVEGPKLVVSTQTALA
protocol-details: Binding affinity to bovine serum albumin assessed as enhancement in emission spectra up to 20 uM by fluorescence spectroscopic analysis relative to control
Format: ADME
measurement-context: cattle, isolated protein
Each entry gets class 0 if its Activity stays under 50%, and class 1 if its Activity is 50% or above.

c1ccc(-c2nc(Nc3ccc(-c4nc5ccccc5[nH]4)cc3)nc(N3CCOCC3)n2)cc1; class 0
Fc1ccc(-c2nc(Nc3ccc(-c4nc5ccccc5[nH]4)cc3)nc(N3CCOCC3)n2)cc1; class 1
c1ccc(CNc2nc(Nc3ccc(-c4nc5ccccc5[nH]4)cc3)nc(N3CCOCC3)n2)cc1; class 0
CN1CCN(c2nc(Nc3ccc(-c4nc5ccccc5[nH]4)cc3)nc(N3CCOCC3)n2)CC1; class 1

----------
growth at 0.1 µM values by entry
Test system: NCI-H23
protocol-details: Growth inhibition of human NCI-H23 cells assessed as cell growth at 10^-7 M incubated for 48 hrs by sulforhodamine B assay
Assay type: functional
measurement-context: NCI-H23, 48 h, read-out: Activity
quantity-measured: growth at 0.1 µM (%)

Clc1ccc(-c2nc(Nc3ccc(-c4nc5ccccc5[nH]4)cc3)nc(N3CCOCC3)n2)cc1; 92
c1ccc(-c2nc(Nc3ccc(-c4nc5ccccc5[nH]4)cc3)nc(N3CCOCC3)n2)cc1; 95
Fc1ccc(-c2nc(Nc3ccc(-c4nc5ccccc5[nH]4)cc3)nc(N3CCOCC3)n2)cc1; 91
c1ccc2[nH]c(-c3ccc(Nc4nc(N5CCCCC5)nc(N5CCOCC5)n4)cc3)nc2c1; 93

----------
measurement-target: Albumin (Bos taurus, UniProt P02769)
protocol-details: Binding affinity to bovine serum albumin assessed as binding constant in emission spectra by Benesie-Hildebrand plot analysis
Type: ADME
measurement-context: cattle, isolated protein
quantity-measured: K

c1ccc2[nH]c(-c3ccc(Nc4nc(NCCN5CCOCC5)nc(N5CCOCC5)n4)cc3)nc2c1; 5.7 ×10⁴ /M
NCCNc1nc(Nc2ccc(-c3nc4ccccc4[nH]3)cc2)nc(N2CCOCC2)n1; 1.3 ×10⁵ /M
c1ccc2[nH]c(-c3ccc(Nc4nc(N5CCCC5)nc(N5CCOCC5)n4)cc3)nc2c1; 5.4 ×10⁴ /M
c1ccc2[nH]c(-c3ccc(Nc4nc(N5CCOCC5)nc(N5CCOCC5)n4)cc3)nc2c1; 6.9 ×10⁴ /M
CN1CCN(c2nc(Nc3ccc(-c4nc5ccccc5[nH]4)cc3)nc(N3CCOCC3)n2)CC1; 2.6 ×10⁴ /M
c1ccc(-c2nc(Nc3ccc(-c4nc5ccccc5[nH]4)cc3)nc(N3CCOCC3)n2)cc1; 3.2 ×10⁴ /M
c1ccc(CNc2nc(Nc3ccc(-c4nc5ccccc5[nH]4)cc3)nc(N3CCOCC3)n2)cc1; 1.8 ×10⁵ /M
OCCNc1nc(Nc2ccc(-c3nc4ccccc4[nH]3)cc2)nc(N2CCOCC2)n1; 8 ×10⁴ /M
Fc1ccc(-c2nc(Nc3ccc(-c4nc5ccccc5[nH]4)cc3)nc(N3CCOCC3)n2)cc1; 7.9 ×10⁴ /M

----------
Tested on: MDA-MB-468
protocol-details: Growth inhibition of human MDA-MB-468 cells incubated for 48 hrs by sulforhodamine B assay
Format: functional
measurement-context: MDA-MB-468, 48 h, read-out: GI50
quantity-measured: GI50 (nM)

c1ccc(-c2nc(Nc3ccc(-c4nc5ccccc5[nH]4)cc3)nc(N3CCOCC3)n2)cc1; 2130
Clc1ccc(-c2nc(Nc3ccc(-c4nc5ccccc5[nH]4)cc3)nc(N3CCOCC3)n2)cc1; 516
Fc1ccc(-c2nc(Nc3ccc(-c4nc5ccccc5[nH]4)cc3)nc(N3CCOCC3)n2)cc1; 2920
c1ccc2[nH]c(-c3ccc(Nc4nc(N5CCCCC5)nc(N5CCOCC5)n4)cc3)nc2c1; 2680

----------
System: KM12
protocol-details: Growth inhibition of human KM12 cells incubated for 48 hrs by sulforhodamine B assay
Assay type: functional
measurement-context: KM12, 48 h, read-out: LC50 (the source's name)
Quick reference: CC50 of the listed items.
quantity-measured: CC50 (µM)

Clc1ccc(-c2nc(Nc3ccc(-c4nc5ccccc5[nH]4)cc3)nc(N3CCOCC3)n2)cc1; 4.75
c1ccc(-c2nc(Nc3ccc(-c4nc5ccccc5[nH]4)cc3)nc(N3CCOCC3)n2)cc1; 6.3

----------
protocol-details: Growth inhibition of human SF268 cells incubated for 48 hrs by sulforhodamine B assay
Format: functional
measurement-context: SF-268, 48 h, read-out: pGI50 (converted)
Collected GI50 values appear next to each entry.
quantity-measured: GI50 (nM)

Fc1ccc(-c2nc(Nc3ccc(-c4nc5ccccc5[nH]4)cc3)nc(N3CCOCC3)n2)cc1; 2820
c1ccc2[nH]c(-c3ccc(Nc4nc(N5CCCCC5)nc(N5CCOCC5)n4)cc3)nc2c1; 3240
c1ccc(-c2nc(Nc3ccc(-c4nc5ccccc5[nH]4)cc3)nc(N3CCOCC3)n2)cc1; 1620
Clc1ccc(-c2nc(Nc3ccc(-c4nc5ccccc5[nH]4)cc3)nc(N3CCOCC3)n2)cc1; 309

----------
Test system: NCI-H460
protocol-details: Growth inhibition of human NCI-H460 cells assessed as cell growth at 10^-8 M incubated for 48 hrs by sulforhodamine B assay
Assay type: functional
measurement-context: NCI-H460, 48 h, read-out: Activity
quantity-measured: growth at 0.01 µM (%)

c1ccc2[nH]c(-c3ccc(Nc4nc(N5CCCCC5)nc(N5CCOCC5)n4)cc3)nc2c1; 101
Clc1ccc(-c2nc(Nc3ccc(-c4nc5ccccc5[nH]4)cc3)nc(N3CCOCC3)n2)cc1; 101
c1ccc(-c2nc(Nc3ccc(-c4nc5ccccc5[nH]4)cc3)nc(N3CCOCC3)n2)cc1; 103
Fc1ccc(-c2nc(Nc3ccc(-c4nc5ccccc5[nH]4)cc3)nc(N3CCOCC3)n2)cc1; 104

----------
protocol-details: Growth inhibition of human HCT116 cells assessed as cell growth at 10 uM incubated for 48 hrs by sulforhodamine B assay
Assay type: functional
measurement-context: HCT-116, 48 h, read-out: Activity
quantity-measured: growth at 10 µM (%)

c1ccc2[nH]c(-c3ccc(Nc4nc(N5CCCCC5)nc(N5CCOCC5)n4)cc3)nc2c1; 9.65
Clc1ccc(-c2nc(Nc3ccc(-c4nc5ccccc5[nH]4)cc3)nc(N3CCOCC3)n2)cc1; -85.5
c1ccc(-c2nc(Nc3ccc(-c4nc5ccccc5[nH]4)cc3)nc(N3CCOCC3)n2)cc1; -81.5
Fc1ccc(-c2nc(Nc3ccc(-c4nc5ccccc5[nH]4)cc3)nc(N3CCOCC3)n2)cc1; 4.8

----------
protocol-details: Growth inhibition of human HCC2998 cells assessed as cell growth at 10^-6 M incubated for 48 hrs by sulforhodamine B assay
Type: functional
measurement-context: HCC 2998, 48 h, read-out: Activity
growth at 1 µM reference
quantity-measured: growth at 1 µM (%)

Fc1ccc(-c2nc(Nc3ccc(-c4nc5ccccc5[nH]4)cc3)nc(N3CCOCC3)n2)cc1; 94
c1ccc(-c2nc(Nc3ccc(-c4nc5ccccc5[nH]4)cc3)nc(N3CCOCC3)n2)cc1; 93
c1ccc2[nH]c(-c3ccc(Nc4nc(N5CCCCC5)nc(N5CCOCC5)n4)cc3)nc2c1; 105
Clc1ccc(-c2nc(Nc3ccc(-c4nc5ccccc5[nH]4)cc3)nc(N3CCOCC3)n2)cc1; 15

----------
Test system: SK-MEL-2
protocol-details: Growth inhibition of human SK-MEL-2 cells incubated for 48 hrs by sulforhodamine B assay
Assay type: functional
measurement-context: SK-MEL-2, 48 h, read-out: GI50
quantity-measured: GI50 (µM)

c1ccc2[nH]c(-c3ccc(Nc4nc(N5CCCCC5)nc(N5CCOCC5)n4)cc3)nc2c1; 2.34
c1ccc(-c2nc(Nc3ccc(-c4nc5ccccc5[nH]4)cc3)nc(N3CCOCC3)n2)cc1; 1.97
Clc1ccc(-c2nc(Nc3ccc(-c4nc5ccccc5[nH]4)cc3)nc(N3CCOCC3)n2)cc1; 1.8
Fc1ccc(-c2nc(Nc3ccc(-c4nc5ccccc5[nH]4)cc3)nc(N3CCOCC3)n2)cc1; 2.33

----------
protocol-details: Growth inhibition of human UACC62 cells incubated for 48 hrs by sulforhodamine B assay
Format: functional
measurement-context: UACC-62, 48 h, read-out: pTGI (converted)
Listing of recorded TGI by entry.
quantity-measured: TGI (µM)

c1ccc(-c2nc(Nc3ccc(-c4nc5ccccc5[nH]4)cc3)nc(N3CCOCC3)n2)cc1; 3.47
c1ccc2[nH]c(-c3ccc(Nc4nc(N5CCCCC5)nc(N5CCOCC5)n4)cc3)nc2c1; 4.37
Fc1ccc(-c2nc(Nc3ccc(-c4nc5ccccc5[nH]4)cc3)nc(N3CCOCC3)n2)cc1; 3.55
Clc1ccc(-c2nc(Nc3ccc(-c4nc5ccccc5[nH]4)cc3)nc(N3CCOCC3)n2)cc1; 0.437

----------
protocol-details: Growth inhibition of human HOP92 cells incubated for 48 hrs by sulforhodamine B assay
Assay type: functional
measurement-context: HOP-92, 48 h, read-out: pGI50 (converted)
quantity-measured: GI50 (nM)

Clc1ccc(-c2nc(Nc3ccc(-c4nc5ccccc5[nH]4)cc3)nc(N3CCOCC3)n2)cc1; 1290
c1ccc2[nH]c(-c3ccc(Nc4nc(N5CCCCC5)nc(N5CCOCC5)n4)cc3)nc2c1; 2000
Fc1ccc(-c2nc(Nc3ccc(-c4nc5ccccc5[nH]4)cc3)nc(N3CCOCC3)n2)cc1; 1820
c1ccc(-c2nc(Nc3ccc(-c4nc5ccccc5[nH]4)cc3)nc(N3CCOCC3)n2)cc1; 1380

Values from ChEMBL document CHEMBL3808334
